Tested on: TLR2 induced IL-6 in peripheral blood mononuclear cells (PBMCs)
assay-protocol: PBMC TLR2 Induced IL-6 Assay
Assay type: cell-based, human
experimental-parameters: Homo sapiens, PBMC, PBMC TLR2 Induced IL-6 Assay; lipoteichoic acid stimulation, IL-6 by ELISA; read-out: Cell IC50
metric: pIC50
Formally, pIC50 is defined as -log10 of the concentration c, with c in mol/L.

Which pIC50 is listed for CC(C)(O)[C@H](F)CNC(=O)c1cnc(-n2ncc3cc(C#N)cnc32)cc1Nc1cnn(S(C)(=O)=O)c1 [Example 385] ?
7.40

Which pIC50 is listed for CC(C)(O)[C@H](F)CNC(=O)c1cnc(-n2cnc3cc(Cl)cnc32)cc1Nc1cnn(CCCF)c1 [Example 370] ?
7.08

Which pIC50 is listed for CCNc1cc(-n2ccc3cc(Cl)cnc32)ncc1C(=O)NC[C@@H](F)C(C)(C)O [Example 33] ?
6.39

Which pIC50 is listed for CC(C)(O)[C@H](F)CNC(=O)c1cnc(-n2ccc3cc(C#N)cnc32)cc1NC1CCCC1 [Example 10] ?
7.10

###

For each record, write down the corresponding pEC50.
System: TLR2 induced IL-6 in peripheral blood mononuclear cells (PBMCs)
assay-protocol: PBMC TLR2 Induced IL-6 Assay
Type: cell-based, human
experimental-parameters: Homo sapiens, PBMC, human PBMCs, lipoteichoic acid stimulated, IL-6 by ELISA; read-out: Cell EC50
Formally, pEC50 is defined as -log10 of the concentration c, with c in mol/L.

Which pEC50 is listed for C[C@@H](CO)Nc1cc(-n2ccc3cc(C#N)cnc32)ncc1C(=O)NCCNS(C)(=O)=O ?
6.34

Which pEC50 is listed for CC(C)(O)[C@H](F)CNC(=O)c1cnc(-n2ncc3cc(F)cnc32)cc1NC1COC1 ?
6.38

Which pEC50 is listed for CC(C)Nc1cc(-n2ccc3cc(C#N)cnc32)ncc1C(=O)NCCCOC(C)(C)C ?
6.77

Which pEC50 is listed for CCOC(C)(C)[C@H](F)CNC(=O)c1cnc(-n2ccc3cc(C#N)cnc32)cc1NC(C)C ?
6.76

###

experimental-target: IRAK4 (Homo sapiens (Human), UniProt Q9NWZ3)
Sequence (Q9NWZ3 whole entry, species assumed): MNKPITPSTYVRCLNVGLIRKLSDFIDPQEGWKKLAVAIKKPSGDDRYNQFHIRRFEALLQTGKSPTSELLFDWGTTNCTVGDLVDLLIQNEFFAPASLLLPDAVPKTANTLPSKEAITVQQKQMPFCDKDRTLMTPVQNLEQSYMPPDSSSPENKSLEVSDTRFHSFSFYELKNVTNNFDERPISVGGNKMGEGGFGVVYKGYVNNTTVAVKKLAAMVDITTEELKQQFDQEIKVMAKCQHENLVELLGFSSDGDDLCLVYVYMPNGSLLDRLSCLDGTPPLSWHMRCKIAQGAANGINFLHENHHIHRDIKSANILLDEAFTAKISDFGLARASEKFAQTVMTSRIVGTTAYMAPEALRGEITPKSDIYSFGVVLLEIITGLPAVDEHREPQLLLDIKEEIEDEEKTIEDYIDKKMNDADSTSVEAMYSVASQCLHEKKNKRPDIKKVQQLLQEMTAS
assay-protocol: IRAK4 Inhibition Assay
Format: biochemical
experimental-parameters: IRAK4 Inhibition Assay; ATP 500 μM; read-out: IRAK4 IC50
For each record, write down the corresponding pIC50.
Formally, pIC50 is defined as -log10 of the concentration c, with c in mol/L.

Which pIC50 is listed for CCNc1cc(-n2ccc3cc(C#N)cnc32)ncc1C(=O)N[C@H]1CC[C@H](C(C)(C)O)CC1 ?
8.60

Which pIC50 is listed for CC(C)(O)CNc1cc(-n2ccc3cncnc32)ncc1C(=O)NC[C@@H](F)C(C)(C)O ?
7.87

Which pIC50 is listed for CC(C)Nc1cc(-n2ccc3cc(C#N)cnc32)ncc1C(=O)N[C@H]1CC[C@](O)(c2ccncc2)CC1 ?
8.55

Which pIC50 is listed for CCOCCNC(=O)c1cnc(-n2ncc3cc(C#N)cnc32)cc1Nc1cnn(CC(F)F)c1 ?
8.15

Which pIC50 is listed for COCCn1cc(Nc2cc(-n3cnc4cc(Cl)cnc43)ncc2C(=O)NC[C@@H](F)C(C)(C)O)cn1 ?
8.10

Which pIC50 is listed for CC(C)(O)[C@H](F)CNC(=O)c1cnc(-n2cnc3cc(Cl)cnc32)cc1NC1COC1 ?
8.00

Which pIC50 is listed for CC(C)(O)[C@H](F)CNC(=O)c1cnc(-n2ncc3cc(C#N)cnc32)cc1NC1CCOCC1 ?
8.66
